- ASSAY_SUMMARY: clinical
- CONDITION_SUMMARY: human, in vivo, po, 100 mg, Cmax (ng/ml) (mean, SD)
MEASURED_QUANTITY: Cmax (ng/mL)

>  <CHEMICAL_STRUCTURE>
Cc1c(NS(=O)(=O)c2c(Cl)cc(-c3ccnc(N4CCNCC4)c3)cc2Cl)c(CC(C)C)nn1C

>  <MEASURED_QUANTITY>
Cmax

>  <UNIT_STRING>
ng/mL

>  <MEASURED_RESULT>
2300

$$$$

----------
- ASSAY_SUMMARY: clinical
- CONDITION_SUMMARY: human, in vivo, po, 210 mg, AUC0 − 24 (h*ng/mL) (mean, SD)
MEASURED_QUANTITY: AUC(0-t) (ng·h/mL)

>  <CHEMICAL_STRUCTURE>
Cc1c(NS(=O)(=O)c2c(Cl)cc(-c3ccnc(N4CCNCC4)c3)cc2Cl)c(CC(C)C)nn1C

>  <MEASURED_RESULT>
14700

$$$$

Reference for the values: paper PMC11327210
